# assayed_target: T1, Fyn SH2 domain (142-248) (human, UniProt P06241 142-248, biotin (on the AviTag))
# T1 construct: SH2 domain of human Fyn kinase, residues 142-248; source: E. coli C43(DE3) with BirA helper plasmid, purified (HisTrap, anion exchange, Ulp1 cleavage, SEC); not shown: His6-SUMO, N-terminal, cleaved; AviTag, C-terminal, kept
# T1 sequence (P06241 142-248): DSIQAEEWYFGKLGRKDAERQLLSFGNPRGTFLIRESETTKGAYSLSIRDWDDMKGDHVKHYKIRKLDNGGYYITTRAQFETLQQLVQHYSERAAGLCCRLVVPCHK
# protocol_description: fluorescence polarisation; competition mode; unlabelled phosphopeptide against 0.4 nM FITC-Ahx-GDG-pY-EEISPLLL-NH2 and 4.125 nM Fyn SH2, as printed (Tables S3 and S5)
# experimental_context: both partners purified
Non-standard residues stand in square brackets, D forms with d. pY = N[C@@H](Cc1ccc(OP(=O)(O)O)cc1)C(=O)O
Task for the reader: assign each of the following binders its reported pKd.
Quick note: pKd means taking -log10 of the concentration in moles per liter.

Could you share which pKd value was measured for Ac-QVEGIG[pY]DFIPTG-NH2 (SMILES CC[C@H](C)[C@H](NC(=O)CNC(=O)[C@H](CCC(=O)O)NC(=O)[C@@H](NC(=O)[C@H](CCC(N)=O)NC(C)=O)C(C)C)C(=O)NCC(=O)N[C@@H](Cc1ccc(OP(=O)(O)O)cc1)C(=O)N[C@@H](CC(=O)O)C(=O)N[C@@H](Cc1ccccc1)C(=O)N[C@H](C(=O)N1CCC[C@H]1C(=O)N[C@H](C(=O)NCC(N)=O)[C@@H](C)O)[C@@H](C)CC, flank added to the 11-residue stretch (surmised: last residue of the library's constant GQSGQ); CBS, human, around pY308; flank added to the 11-residue stretch (surmised: first residue of the library's constant GGQSG); source: synthetic peptide (SynPeptide, China)) [CBS pY308] ?
6.90

Could you share which pKd value was measured for Ac-QSLEKS[pY]ELPDGG-NH2 (SMILES CC(=O)N[C@@H](CCC(N)=O)C(=O)N[C@@H](CO)C(=O)N[C@@H](CC(C)C)C(=O)N[C@@H](CCC(=O)O)C(=O)N[C@@H](CCCCN)C(=O)N[C@@H](CO)C(=O)N[C@@H](Cc1ccc(OP(=O)(O)O)cc1)C(=O)N[C@@H](CCC(=O)O)C(=O)N[C@@H](CC(C)C)C(=O)N1CCC[C@H]1C(=O)N[C@@H](CC(=O)O)C(=O)NCC(=O)NCC(N)=O, flank added to the 11-residue stretch (surmised: last residue of the library's constant GQSGQ); ACTB, human, around pY240; flank added to the 11-residue stretch (surmised: first residue of the library's constant GGQSG); source: synthetic peptide (SynPeptide, China)) [ACTB pY240] ?
6.80

Could you share which pKd value was measured for Ac-QSDQRR[pY]SLIDRG-NH2 (SMILES CC[C@H](C)[C@H](NC(=O)[C@H](CC(C)C)NC(=O)[C@H](CO)NC(=O)[C@H](Cc1ccc(OP(=O)(O)O)cc1)NC(=O)[C@H](CCCNC(=N)N)NC(=O)[C@H](CCCNC(=N)N)NC(=O)[C@H](CCC(N)=O)NC(=O)[C@H](CC(=O)O)NC(=O)[C@H](CO)NC(=O)[C@H](CCC(N)=O)NC(C)=O)C(=O)N[C@@H](CC(=O)O)C(=O)N[C@@H](CCCNC(=N)N)C(=O)NCC(N)=O, flank added to the 11-residue stretch (surmised: last residue of the library's constant GQSGQ); CLIP2, human, around pY972; flank added to the 11-residue stretch (surmised: first residue of the library's constant GGQSG); source: synthetic peptide (SynPeptide, China)) [CLIP2 pY972] ?
7.11
